As shown below, each of these compounds has a reported Activity value.
target: Glutamate NMDA receptor; GRIN1/GRIN2B (Homo sapiens, UniProt Q05586+Q13224); experiment: Inhibition of human recombinant NR1/NR2B receptor expressed in U2OS assessed as change in intracellular calcium level by FLIPR assay; format: cell-based; parameters: concentration or dose not given beside the values

c1ccc(C2(N3CCCCC3)CCCCC2)nc1 ... 94%
CNC1(c2ccc(OC)cc2Cl)CCCCC1=O (stereo not given) ... 80%
FC(F)(F)COc1cccc(C2(N3CCCCC3)CCCCC2)c1 ... 94%
O=C1NCCCC1(c1ccccc1)N1CCCCC1 (stereo not given) ... 80%
CNC1(c2ccccc2Cl)CCCCC1=O (stereo not given) ... > 100%

Activity in this record for CN1CCCC(c2ccccc2)(N2CCCCC2)C1=O (stereo not given) : 80%

Quick note, Activity for "c1ccc(C2(N3CCCCC3)CCCCC2)cc1" landed at > 100%

Given item CNC1(c2ccccc2Cl)CCCNC1=O (stereo not given) , the value recorded as its Activity is 80%

# Activity (compound: "COc1ccc(C2(N3CCCCC3)CCCCC2)cc1" ) is 94%

Recorded result, CN1CCC(c2ccccc2)(N2CCCCC2)C1=O (stereo not given) , Activity: 80%

Entry NC1(c2ccccc2Cl)CCCNC1=O (stereo not given) , Activity reported as 80%

Activity in this record for "CCCCOc1cccc(C2(N3CCCCC3)CCCCC2)c1" : 94%

Activity measured on "CCCCOc1ccc(C2(N3CCCCC3)CCCCC2)cc1" = 94%

Kindly note the recorded Activity for CNC1(c2ccccc2Cl)CCCN(C)C1=O (stereo not given) , which is 80%

Memo: O=C1NCCC1(c1ccccc1)N1CCCCC1 (stereo not given) , reported Activity: 80%

====

Below, each of the compounds is paired with its reported Activity value.
target: Glutamate NMDA receptor; GRIN1/GRIN2A (Homo sapiens, UniProt Q05586+Q12879); test: Inhibition of human recombinant NR1/NR2A receptor expressed in U2OS assessed as change in intracellular calcium level by FLIPR assay; type: cell-based; set-up: concentration or dose not given beside the values
Please state the figure in %; there is no need to write the unit.

Observe how each entry below is paired with its result.
CNC1(c2ccccc2Cl)CCCN(C)C1=O (configuration not stated) ... 80
c1ccc(C2(N3CCCCC3)CCCCC2)nc1 ... 94
CN1CCC(c2ccccc2)(N2CCCCC2)C1=O (configuration not stated) ... 80
CN1CCCC(c2ccccc2)(N2CCCCC2)C1=O (configuration not stated) ... 80
CCCCOc1ccc(C2(N3CCCCC3)CCCCC2)cc1 ... 94

Query compound follows.
Entry under test: NC1(c2ccccc2Cl)CCCNC1=O (configuration not stated) . Its Activity was 80
